Reported EC50 by item:
- TEST_SYSTEM: human κ (CHO-KOR) opioid receptor (Homo sapiens)
- Sequence (P41145 whole entry): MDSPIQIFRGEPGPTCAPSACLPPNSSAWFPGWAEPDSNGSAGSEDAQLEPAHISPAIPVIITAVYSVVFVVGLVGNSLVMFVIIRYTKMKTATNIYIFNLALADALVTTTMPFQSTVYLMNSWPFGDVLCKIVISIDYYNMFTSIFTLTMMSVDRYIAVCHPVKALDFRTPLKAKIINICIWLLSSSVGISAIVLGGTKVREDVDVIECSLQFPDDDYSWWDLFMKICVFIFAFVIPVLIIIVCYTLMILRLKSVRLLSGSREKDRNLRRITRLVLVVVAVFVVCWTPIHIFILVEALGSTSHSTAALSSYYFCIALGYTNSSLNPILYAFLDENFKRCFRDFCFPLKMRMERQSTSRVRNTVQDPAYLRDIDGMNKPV
- PROTOCOL: Stimulation of [35S]GTPγS binding, KOR
- CONDITION_INFO: [35S]GTPγS binding, CHO-KOR membranes; mean ± standard error
RECORDED_METRIC: EC50 (nM)

{"columns": ["COMPOUND_STRUCTURE_STRING", "NUMERIC_READOUT"],
 "data": [
  ["Cc1cc(O)cc(C)c1C[C@H](N)C(=O)N(C)[C@@H]1CCNc2ccc(Cc3ccccc3)cc21", 488],
  ["Cc1cc(O)cc(C)c1C[C@H](N)C(=O)N[C@@H]1CCNc2c(-c3ccoc3)cc(Cc3ccccc3)cc21", 290],
  ["CCCCCCc1ccc2c(c1)[C@H](NC(=O)[C@@H](N)Cc1c(C)cc(O)cc1C)CCN2", 773],
  ["Cc1cc(O)cc(C)c1C[C@H](N)C(=O)N[C@@H]1CCSc2ccc(Cc3ccccc3)cc21", 337],
  ["Cc1cc(O)cc(C)c1C[C@H](N)C(=O)N[C@@H]1CCNc2ccc(CN3CCC4(CCCCC4)CC3)cc21", 92.1],
  ["CC(=O)N1CC[C@@H](NC(=O)[C@@H](N)Cc2c(C)cc(O)cc2C)c2cc(Oc3ccc(Cl)cc3)ccc21", 1820],
  ["Cc1cc(O)cc(C)c1C[C@H](N)C(=O)N[C@@H]1CCN(C)c2ccc(Cc3ccccc3)cc21", 2220],
  ["CC(=O)N1CC[C@@H](NC(=O)[C@@H](N)Cc2c(C)cc(O)cc2C)c2cc(Oc3ccccc3)ccc21", 1080]
]}

----------
human κ (CHO-KOR) opioid receptor (Homo sapiens): reported pKi for various compounds.
pKi: −log10 of the molar value.
RECORDED_METRIC: pKi

{"columns": ["COMPOUND", "TEST_SYSTEM", "NUMERIC_READOUT"],
 "data": [
  ["Cc1ccc2c(c1)CN(Cc1ccc3c(c1)[C@H](NC(=O)[C@@H](N)Cc1c(C)cc(O)cc1C)CCN3)CC2 [Compound 1049]", "human κ (CHO-KOR) opioid receptor (Homo sapiens)", 7.92],
  ["Cc1cc(O)cc(C)c1C[C@H](N)C(=O)N[C@@H]1CCNc2c(Cc3ccccc3)cccc21 [Compound 1039]", "human κ (CHO-KOR) opioid receptor (Homo sapiens)", 6.01],
  ["Cc1ccc(Cc2ccc3c(c2)[C@@H](NC(=O)[C@@H](N)Cc2c(C)cc(O)cc2C)CCN3)cc1 [Compound 1008]", "human κ (CHO-KOR) opioid receptor (Homo sapiens)", 7.30],
  ["Cc1cc(O)cc(C)c1C[C@H](N)C(=O)N[C@@H]1C[C@@H](C)Nc2ccc(Cc3ccccc3)cc21 [Compound 1014]", "human κ (CHO-KOR) opioid receptor (Homo sapiens)", 6.62],
  ["Cc1cc(O)cc(C)c1C[C@H](N)C(=O)N[C@@H]1CCNc2ccc(Cc3cc4ccccc4o3)cc21 [Compound 1065]", "human κ (CHO-KOR) opioid receptor (Homo sapiens)", 7.38],
  ["Cc1cc(O)cc(C)c1C[C@H](N)C(=O)N[C@@H]1CCNc2c(CN3CCNCC3)cc(Cc3ccccc3)cc21 [Compound 1131]", "human κ (CHO-KOR) opioid receptor (Homo sapiens)", 8.72],
  ["Cc1cc(O)cc(C)c1C[C@H](N)C(=O)N[C@@H]1CCNc2c(C(=O)Nc3ccccc3)cc(Cc3ccccc3)cc21 [Compound 1103]", "human κ (CHO-KOR) opioid receptor (Homo sapiens)", 7.53],
  ["CCCc1cc(Cc2ccccc2)cc2c1N(C(C)=O)CC[C@H]2NC(=O)[C@@H](N)Cc1c(C)cc(O)cc1C [Compound 1107]", "human κ (CHO-KOR) opioid receptor (Homo sapiens)", 7.49],
  ["CC(=O)N1CC[C@@H](NC(=O)[C@@H](N)Cc2c(C)cc(O)cc2C)c2cc(-c3ccccc3)ccc21 [Compound 1067]", "human κ (CHO-KOR) opioid receptor (Homo sapiens)", 7.45],
  ["Cc1cc(O)cc(C)c1C[C@H](N)C(=O)N(C1CC1)[C@@H]1CCNc2ccc(Cc3ccccc3)cc21 [Compound 1015]", "human κ (CHO-KOR) opioid receptor (Homo sapiens)", 7.23],
  ["Cc1cc(O)cc(C)c1C[C@H](N)C(=O)N[C@@H]1CCNc2c(CN3CCN(C(=O)[C@@H](N)Cc4c(C)cc(O)cc4C)CC3)cc(Cc3ccccc3)cc21 [Compound 1096]", "human κ (CHO-KOR) opioid receptor (Homo sapiens)", 8.14],
  ["Cc1cc(O)cc(C)c1C[C@H](N)C(=O)N[C@@H]1CCNc2ccc(Sc3ccccc3)cc21 [Compound 1053]", "human κ (CHO-KOR) opioid receptor (Homo sapiens)", 7.96],
  ["CCCC(=O)N1CC[C@@H](NC(=O)[C@@H](N)Cc2c(C)cc(O)cc2C)c2cc(CC3Cc4ccccc4C3)ccc21 [Compound 1034]", "human κ (CHO-KOR) opioid receptor (Homo sapiens)", 7.59],
  ["CCCN1CC[C@@H](NC(=O)[C@@H](N)Cc2c(C)cc(O)cc2C)c2cc(Cc3ccccc3)ccc21 [Compound 1006]", "human κ (CHO-KOR) opioid receptor (Homo sapiens)", 7.14]
]}

----------
- TEST_SYSTEM: rat δ (C6-DOR) opioid receptor (Rattus norvegicus)
- Sequence (P33533 whole entry): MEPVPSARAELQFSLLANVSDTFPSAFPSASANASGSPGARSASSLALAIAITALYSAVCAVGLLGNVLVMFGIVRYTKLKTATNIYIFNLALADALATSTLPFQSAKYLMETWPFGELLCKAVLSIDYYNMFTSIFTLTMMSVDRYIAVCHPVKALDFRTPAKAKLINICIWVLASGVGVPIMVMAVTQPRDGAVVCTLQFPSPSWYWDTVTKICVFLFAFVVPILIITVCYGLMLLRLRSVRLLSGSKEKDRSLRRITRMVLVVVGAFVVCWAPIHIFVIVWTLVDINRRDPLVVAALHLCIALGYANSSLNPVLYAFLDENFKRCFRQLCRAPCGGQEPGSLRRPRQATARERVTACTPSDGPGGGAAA
# label = bin(measured Ki), where bins are c1: < 4 nM; c2: ≥ 4 nM and < 10 nM; c3: ≥ 10 nM

{"columns": ["COMPOUND", "GROUP_LABEL"],
 "data": [
  ["Cc1cc(O)cc(C)c1C[C@H](N)C(=O)N[C@H]1CCN(C)c2ccc(Cc3ccccc3)cc21 [Compound 1005]", "c3"],
  ["Cc1cc(O)cc(C)c1C[C@H](N)C(=O)N[C@@H]1CCNc2ccc(Cc3ccc4c(c3)OCCO4)cc21 [Compound 1050]", "c2"],
  ["COc1cc(Cl)c(C[C@H](N)C(=O)N[C@@H]2CCNc3ccc(Cc4ccccc4)cc32)c(Cl)c1 [Compound 1021]", "c3"],
  ["Cc1cc(O)cc(C)c1C[C@H](N)C(=O)N[C@@H]1CCNc2c(Br)cc(Cc3ccccc3)cc21 [Compound 1128]", "c1"],
  ["Cc1cc(O)cc(C)c1C[C@H](N)C(=O)N[C@@H]1CCNc2ccc(Oc3ccc(Cl)cc3)cc21 [Compound 1025]", "c3"],
  ["Cc1cc(O)cc(C)c1C[C@H](N)C(=O)N[C@@H]1CCNc2c(CCc3ccccc3)cc(Cc3ccccc3)cc21 [Compound 1098]", "c1"],
  ["CC(=O)N1CC[C@@H](NC(=O)[C@@H](N)Cc2c(C)cc(O)cc2C)c2cc(Oc3ccccc3)ccc21 [Compound 1019]", "c2"],
  ["Cc1ccc2c(c1)CN(Cc1ccc3c(c1)[C@H](NC(=O)[C@@H](N)Cc1c(C)cc(O)cc1C)CCN3)CC2 [Compound 1049]", "c3"],
  ["CC(=O)N1CC[C@@H](NC(=O)[C@@H](N)Cc2c(C)cc(O)cc2C)c2cccc(Cc3ccccc3)c21 [Compound 1040]", "c2"],
  ["Cc1cc(O)cc(C)c1C[C@H](N)C(=O)N[C@@H]1CCOc2ccc(Cc3ccccc3)cc21 [Compound 1111]", "c2"],
  ["Cc1cc(O)cc(C)c1C[C@H](N)C(=O)N[C@H]1CCNc2ccc(Cc3ccc(F)cc3)cc21 [Compound 1010]", "c3"],
  ["Cc1cc(O)cc(C)c1C[C@H](N)C(=O)N(C)[C@H]1CCNc2ccc(Cc3ccccc3)cc21 [Compound 1002]", "c2"],
  ["CC(=O)N1CC[C@@H](NC(=O)[C@@H](N)Cc2c(C)cc(O)cc2C)c2cc(CC3Cc4ccccc4C3C)ccc21 (some centres unmarked) [Compound 1125]", "c1"],
  ["Cc1cc(O)cc(C)c1C[C@H](N)C(=O)N[C@@H]1CCNc2ccc(Cn3n[n+]([O-])c4ccc(Cl)cc43)cc21 [Compound 1047]", "c1"]
]}

----------
Reported pKi by item:
- TEST_SYSTEM: rat μ (C6-MOR) opioid receptor (Rattus norvegicus)
- Sequence (P33535 whole entry): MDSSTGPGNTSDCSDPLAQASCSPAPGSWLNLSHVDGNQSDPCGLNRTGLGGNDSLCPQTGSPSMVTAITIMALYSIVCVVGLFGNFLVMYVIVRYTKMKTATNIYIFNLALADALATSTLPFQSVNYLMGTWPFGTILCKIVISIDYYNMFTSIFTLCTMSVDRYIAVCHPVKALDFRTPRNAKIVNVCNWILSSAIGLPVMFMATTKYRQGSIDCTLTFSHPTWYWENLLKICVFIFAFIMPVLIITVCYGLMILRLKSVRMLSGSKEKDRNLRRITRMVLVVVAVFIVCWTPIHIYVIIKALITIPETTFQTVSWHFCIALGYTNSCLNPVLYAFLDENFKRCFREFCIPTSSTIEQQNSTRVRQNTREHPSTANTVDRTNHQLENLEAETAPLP
pKi: −log10 of the molar value.
RECORDED_METRIC: pKi

{"columns": ["COMPOUND", "NUMERIC_READOUT"],
 "data": [
  ["Cc1cc(O)cc(C)c1C[C@H](N)C(=O)N[C@@H]1CCNc2c(-c3ccoc3)cc(Cc3ccccc3)cc21", 9.47],
  ["Cc1cc(O)cc(C)c1C[C@H](N)C(=O)N[C@@H]1CCNc2ccc(CC3Cc4ccccc4C3C)cc21 (some centres unmarked)", 9.37],
  ["Cc1cc(O)cc(C)c1C[C@H](N)C(=O)N[C@@H]1CCNc2c(Cc3ccccc3)cc(Cc3ccccc3)cc21", 9.14],
  ["Cc1cc(O)cc(C)c1C[C@H](N)C(=O)N[C@@H]1CCNc2c1cc(Cc1ccccc1)cc2C(F)(F)F", 9.52],
  ["CCC(=O)N1CC[C@@H](NC(=O)[C@@H](N)Cc2c(C)cc(O)cc2C)c2cc(CC3Cc4ccccc4C3)ccc21", 10.22],
  ["Cc1cc(O)cc(C)c1C[C@H](N)C(=O)N[C@@H]1CCNc2cc(Cc3ccccc3)ccc21", 9.11],
  ["N[C@@H](Cc1ccc(Cl)cc1Cl)C(=O)N[C@@H]1CCNc2ccc(Cc3ccccc3)cc21", 7.30],
  ["CC(=O)N1CC[C@@H](NC(=O)[C@@H](N)Cc2c(C)cc(O)cc2C)c2cc(Cc3ccccc3)cc(C)c21", 9.74],
  ["CC(=O)N1CC[C@@H](NC(=O)[C@@H](N)Cc2c(C)cc(O)cc2C)c2cc(Cc3ccccc3)cc(Cc3ccccc3)c21", 9.46],
  ["Cc1cc(O)cc(C)c1C[C@H](N)C(=O)N[C@@H]1CCNc2ccc(Cn3n[n+]([O-])c4ccc(Cl)cc43)cc21", 9.46],
  ["Cc1ccc(Cc2ccc3c(c2)[C@H](NC(=O)[C@@H](N)Cc2c(C)cc(O)cc2C)CCN3)cc1", 9.96],
  ["COc1ccccc1Oc1ccc2c(c1)[C@H](NC(=O)[C@@H](N)Cc1c(C)cc(O)cc1C)CCN2C(C)=O", 9.57],
  ["Cc1cc(O)cc(C)c1C[C@H](N)C(=O)N[C@@H]1CCNc2c(CCc3ccccc3)cc(Cc3ccccc3)cc21", 9.19],
  ["Cc1cc(O)cc(C)c1C[C@H](N)C(=O)N[C@@H]1CCNc2c(Br)cc(Cc3ccccc3)cc21", 9.70]
]}
